tested on: HCT116 (colorectal carcinoma, K Ras G13D) cells; assay: Cell proliferation (Alamar Blue) assay, HCT116; type: cell-based, human; conditions: Homo sapiens, HCT-116, HCT116 cells
Readout Name: IC50

In [3]: df
Out[3]:
                                    compound  value_reported
 0  Cc1cnc(Nc2ccc(F)cc2Cl)nc1-n1cnc(C(=O)N[C@H](CO)c2cccc(Cl)c2)c1       > 2500 nM
 1  Cc1cnc(Nc2ccc3c(c2)CCO3)nc1-n1ccc(C(=O)NC(CO)c2ccccc2)c1 (stereo not shown)   100 to 250 nM
 2  Cc1cnc(N[C@H]2CCOC2)nc1-n1cnc(C(=O)NCc2cccc(Cl)c2F)c1       > 2500 nM
 3  Cc1cnc(N[C@H]2CCOC2)nc1-n1cnc(C(=O)NCc2c(Cl)cccc2C(F)(F)F)c1       > 2500 nM
 4  Cc1cnc(Nc2ccc(N3CCOCC3)cc2)nc1-n1ccc(C(=O)NC(CO)c2cccc(Cl)c2)c1 (stereo not shown)   250 to 500 nM
 5  Cc1cnc(Nc2ccc3c(c2)OC(F)(F)O3)cc1-n1cnc(C(=O)NC(CO)c2cccc(Cl)c2)c1 (stereo not shown)       > 2500 nM
 6  Cc1cnc(NCc2cccnc2)cc1-n1ccc(C(=O)NC(CO)c2ccc(F)c(Cl)c2)c1 (stereo not shown)       > 2500 nM
 7  Cc1cnc(NC2CCOCC2)nc1-n1cnc(C(=O)N[C@@H](CN)c2cccc(Cl)c2)c1 (single isomer, unassigned) [Compound 225b]  500 to 2500 nM
 8  Cc1cnc(NC(CO)CO)nc1-n1ccc(C(=O)NC(CO)c2ccccc2)c1 (stereo not shown)       > 2500 nM
 9  Cc1cn(-c2nc(Nc3ccc(F)cc3)ncc2C)cc1C(=O)NC(CO)c1cccc(Cl)c1 (stereo not shown)  500 to 2500 nM
10  Cc1cnc(NC2CCOCC2)nc1-n1cnc(C(=O)NCc2cccc(Cl)c2CO)c1        ≤ 100 nM
11  O=C(Nc1cnn(-c2ccnc(Nc3ccccc3)c2)c1)N[C@@H](CO)c1cccc(Cl)c1       > 2500 nM
12  O=C(N[C@H](CO)c1cccc(Cl)c1)c1cn(-c2ccnc(NC3CC3)c2)cn1       > 2500 nM
13  CNCCNC[C@@H](NC(=O)c1cn(-c2nc(NC3CCOCC3)ncc2C)cn1)c1cccc(Cl)c1  500 to 2500 nM
14  Cc1cnc(N[C@H]2CCOC2)nc1-n1cnc(C(=O)NCc2cccc(Cl)c2)c1       > 2500 nM
15  Cc1cnc(Nc2ccc3c(c2)OCO3)nc1-n1cnc(C(=O)NC(CN)c2cc(F)cc(Cl)c2)c1 (stereo not shown)        ≤ 100 nM
